SUBJECT OF TEST: NS3h 1b[con1]
ASSAY TEXT: NS3h unwinding inhibitors, genotype 1b and 2a – biochemical, real-time fluorescence, strains con1 and JFH1, set 3, selectivity assay for HCV NS3 helicase inhibitor project, late-stage follow-up (AID 602275)
EXPERIMENTAL CONDITIONS: Recombinant NS3h
QUANTITY KIND: pIC50
Please treat pIC50 as minus the base-10 logarithm of the molar concentration.

Solved cases below.
Which value of pIC50 has been reported for "CCN(CC)c1ccc(-c2nc3ccc(-c4nc5ccc(C)c(S(=O)(=O)O)c5s4)cc3s2)cc1" in the records?
5.34

Which value of pIC50 has been reported for "COc1ccc(S(=O)(=O)Nc2ccc(-c3nc4ccc(-c5nc6ccc(C)c(S(=O)(=O)O)c6s5)cc4s3)cc2)cc1" in the records?
4.61

Which value of pIC50 has been reported for Cc1ccc2c(sc(-c3ccc4c(c3)sc(-c3ccc5c(c3)sc(-c3ccc(N(C)C)cc3)[n+]5C)[n+]4C)[n+]2C)c1S(=O)(=O)O (tested in a mixture with another compound) in the records?
4.62

Which value of pIC50 has been reported for "CCN(CC)c1ccc(-c2nc3ccc(C)c(S(=O)(=O)O)c3s2)cc1" in the records?
4.48

Which value of pIC50 has been reported for "Cc1ccc2nc(-c3ccc(NC(=O)c4ccc(NC(=O)c5ccc(N)cc5)cc4)cc3)sc2c1S(=O)(=O)O" in the records?
4.53

Which value of pIC50 has been reported for "Cc1ccc2nc(-c3ccc4nc(-c5ccc(NC(=S)Nc6ccccc6)cc5)sc4c3)sc2c1S(=O)(=O)O" in the records?
5.03

Turning to the following molecule.
Which value of pIC50 has been reported for "Cc1ccc2nc(-c3ccc4nc(-c5ccc(NC(=O)Nc6ccc(F)cc6)cc5)sc4c3)sc2c1S(=O)(=O)O" in the records?
5.11
